These data points were gathered from paper PMC8514532.

- testedSystem: PopP2 (149-488), AVI-tagged and biotinylated, the 'WT' of the BLI assay (Ralstonia solanacearum, UniProt Q8Y125 149-488)
- protocolSummary: BLI
attributeMeasured: pKd
Scale: negative log10 of molar concentration, which is what pKd denotes.

Problem: Could you share which pKd value was measured for WRKY DNA-binding domain of the Arabidopsis RRS1-R immune receptor (domain or fragment) SESKVKKVVSIPAIDEGDLWTWRKYGQKDILGSRFPRGYYRCAYKFTHGCKATKQVQRSETDSNMLAITYLSEHNHPRPT ?
Result: 7.89
